Test: Folding and unfolding kinetics (Chevron plot, stopped-flow CD, GuHCl)
Assay type: physicochemical
Settings: slope of ln(kf) vs GuHCl
Answer each item with its documented mf.
Express your answer in M⁻¹, writing the number without its unit.

Lookup: Endpoint output: mf of SYM5/Δ120-122: SYM5 FGF-1 mutant plus Arg119→Gly/ΔGly120/ΔPro121/ΔArg122, SEQ ID NO: 2 (protein, Human FGF-1 mutant SYM5D120-122) FNLPPGNYKKPKLLYCSNGGHFLRILPDGTVDGTRDRSDQHIQFQLSAESVGEVYIKSTETGQYLAMDTDGLVYGSQTPNEECLFLERLEENHYNTYISKKHAEKNWFLGIKKNGSVKGTHYGQKAILFLPLPVSSD . Value?
Found: -6.44

Lookup: What about SYM5: FGF-1 core mutant Leu44→Phe/Leu73→Val/Val109→Leu/Leu111→Ile/Cys117→Val (protein, UniProt P05230 16-155, looked up, variant L44F L73V V109L L111I C117V) Fibroblast growth factor 1: FNLPPGNYKKPKLLYCSNGGHFLRILPDGTVDGTRDRSDQHIQFQLSAESVGEVYIKSTETGQYLAMDTDGLVYGSQTPNEECLFLERLEENHYNTYISKKHAEKNWFLGIKKNGSVKRGPRTHYGQKAILFLPLPVSSD ?
Found: -6.44

Lookup: What about SYM6/Δ104-106: SYM6 FGF-1 mutant plus Ala103→Gly/ΔGlu104/ΔLys105/ΔAsn106 (protein, UniProt P05230 16-155, looked up, variant A103G E104* K105* N106*, SYM6 background mutations, SYM6 FGF-1 mutant plus Ala103→Gly/ΔGlu104/ΔLys105/ΔAsn106) Fibroblast growth factor 1: FNLPPGNYKKPKLLYCSNGGHFLRILPDGTVDGTRDRSDQHIQLQLSAESVGEVYIKSTETGQYLAMDTDGLLYGSQTPNEECLFLERLEENHYNTYISKKHGWFVGLKKNGSCKRGPRTHYGQKAILFLPLPVSSD ?
Found: -5.41

Attribution: patent US7790682B1
